# credit: ChEMBL document CHEMBL1269000

The compounds listed here are annotated with their IC50.
Target: Peptidyl-prolyl cis-trans isomerase B (Homo sapiens)
Sequence (P23284 whole entry): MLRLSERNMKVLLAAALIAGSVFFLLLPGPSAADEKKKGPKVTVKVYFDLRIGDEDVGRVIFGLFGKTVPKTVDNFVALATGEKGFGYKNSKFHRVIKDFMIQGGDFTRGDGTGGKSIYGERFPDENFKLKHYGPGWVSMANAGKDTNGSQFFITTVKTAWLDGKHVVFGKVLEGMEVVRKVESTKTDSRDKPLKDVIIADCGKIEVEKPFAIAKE
Write it as a number; the unit nM goes unstated.

C/C=C/C[C@@H](C)[C@@H](O)[C@H]1C(=O)N[C@@H](CC)C(=O)N(C)CC(=O)N(C)[C@@H](CC(C)C)C(=O)N[C@@H](C(C)C)C(=O)N(C)[C@@H](CC(C)C)C(=O)N[C@@H](C)C(=O)N[C@H](CCCCN)C(=O)N(C)[C@@H](CC(C)C)C(=O)N(C)[C@@H](CC(C)C)C(=O)N(C)[C@@H](C(C)C)C(=O)N1C = 12.7
C/C=C/C[C@@H](C)[C@@H](O)[C@H]1C(=O)N[C@@H](CC)C(=O)N(C)CC(=O)N(C)[C@@H](CC(C)C)C(=O)N[C@@H](C(C)C)C(=O)N(C)[C@@H](CC(C)C)C(=O)N[C@@H](C)C(=O)N[C@H](CCNC(=O)C(C)(C)C)C(=O)N(C)[C@@H](CC(C)C)C(=O)N(C)[C@@H](CC(C)C)C(=O)N(C)[C@@H](C(C)C)C(=O)N1C = 26.1

Would you kindly look at the next entry?
Input line: What value of IC50 on Peptidyl-prolyl cis-trans isomerase B (Homo sapiens) does C/C=C/C[C@@H](C)[C@@H](O)[C@H]1C(=O)N[C@@H](CC)C(=O)N(C)CC(=O)N(C)[C@@H](CC(C)C)C(=O)N[C@@H](C(C)C)C(=O)N(C)[C@@H](CC(C)C)C(=O)N[C@@H](C)C(=O)N[C@H](CCN)C(=O)N(C)[C@@H](CC(C)C)C(=O)N(C)[C@@H](CC(C)C)C(=O)N(C)[C@@H](C(C)C)C(=O)N1C have?
Output line: 151
